Recorded MIC by entry
- subjectOfTest: Multidrug efflux pump subunit AcrB (Escherichia coli (strain K12)) (UniProt P31224)
- Sequence (whole entry): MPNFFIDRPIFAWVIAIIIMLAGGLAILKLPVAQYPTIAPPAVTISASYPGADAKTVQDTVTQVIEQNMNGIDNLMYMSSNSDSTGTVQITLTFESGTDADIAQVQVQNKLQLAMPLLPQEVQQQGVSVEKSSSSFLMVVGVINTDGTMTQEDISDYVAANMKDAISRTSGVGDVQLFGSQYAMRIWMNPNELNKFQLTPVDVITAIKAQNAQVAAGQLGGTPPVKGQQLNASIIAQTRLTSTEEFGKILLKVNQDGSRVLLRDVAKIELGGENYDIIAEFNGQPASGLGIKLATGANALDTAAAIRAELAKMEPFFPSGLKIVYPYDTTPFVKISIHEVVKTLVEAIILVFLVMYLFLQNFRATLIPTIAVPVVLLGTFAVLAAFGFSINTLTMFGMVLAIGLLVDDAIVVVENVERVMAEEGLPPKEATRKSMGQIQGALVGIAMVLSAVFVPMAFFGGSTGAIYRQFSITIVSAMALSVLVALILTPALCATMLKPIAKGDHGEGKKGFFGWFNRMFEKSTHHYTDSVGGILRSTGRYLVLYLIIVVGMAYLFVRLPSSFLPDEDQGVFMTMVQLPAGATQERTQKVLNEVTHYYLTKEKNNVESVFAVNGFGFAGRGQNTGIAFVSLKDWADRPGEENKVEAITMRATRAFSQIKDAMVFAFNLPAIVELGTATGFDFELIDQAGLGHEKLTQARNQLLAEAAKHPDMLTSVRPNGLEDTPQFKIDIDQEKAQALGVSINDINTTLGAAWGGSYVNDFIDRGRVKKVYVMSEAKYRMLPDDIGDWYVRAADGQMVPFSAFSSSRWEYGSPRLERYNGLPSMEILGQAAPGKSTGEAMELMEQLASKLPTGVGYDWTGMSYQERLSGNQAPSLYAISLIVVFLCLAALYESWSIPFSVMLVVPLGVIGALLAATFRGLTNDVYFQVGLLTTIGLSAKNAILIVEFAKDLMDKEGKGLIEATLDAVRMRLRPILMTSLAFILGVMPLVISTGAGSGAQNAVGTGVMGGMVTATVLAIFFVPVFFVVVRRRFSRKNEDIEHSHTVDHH
- methodDescription: Inhibition of AcrB in multidrug-resistant Escherichia coli BW25113 assessed as potentiation of erythromycin-induced antibacterial activity by measuring erythromycin MIC at 16 ug/ml by checkerboard titration method (reference value: 64 ug/ml)
- conditionInfo: dose 16.0 µg/ml
The reply should be a number in µg/mL, with the unit left off.

testSmiles | MIC [µg/mL]
CC1(C)CCc2c(-c3nnco3)cc3c(OCc4ccccc4)cccc3c2O1 | 64
Cc1ccc(COc2cccc3c4c(c(-c5nnco5)cc23)CCC(C)(C)O4)cc1 | 32
CC1(C)CCc2c(C(=O)N3CCOCC3)cc3c(OCc4ccccc4)cccc3c2O1 | 64

Then there is this compound:
Which MIC is listed for CC1(C)CCc2c(Cn3cnnn3)cc3c(OCc4ccccc4)cccc3c2O1 ?
64

Cited source: ChEMBL document CHEMBL4732114
